# TARGET ENTITY: T1, cynomolgus CD3 (cynomolgus monkey, UniProt Q95LI5 22-198)
# T1 construct: also called CD3 on the cynomolgus T-cell line HSC-F; cynomolgus CD3ε (epsilon)
# T1 sequence (Q95LI5 22-198): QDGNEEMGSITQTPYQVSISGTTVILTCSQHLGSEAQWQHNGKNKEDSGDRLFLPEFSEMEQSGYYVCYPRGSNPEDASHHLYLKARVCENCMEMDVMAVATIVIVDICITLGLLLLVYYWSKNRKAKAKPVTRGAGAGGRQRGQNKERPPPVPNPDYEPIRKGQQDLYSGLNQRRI
# ASSAY PROTOCOL: flow cytometry on HSC-F cells, FIG. 2A
MEASURED ENDPOINT: binding result

{"columns": ["BINDER", "DATA VALUE"],
 "data": [
  ["IgG1-huCD3-H1L2 (antibody, V domains shown, IgG1,λ with wild-type Fc region) VH: EVKLVESGGGLVQPGGSLRLSCAASGFTFNTYAMNWVRQAPGKGLEWVARIRSKYNNYATYYADSVKDRFTISRDDSKSSLYLQMNNLKTEDTAMYYCVRHGNFGNSYVSWFAYWGQGTLVTVSS VL: QAVVTQEPSFSVSPGGTVTLTCRSSTGAVTTSNYANWVQQTPGQAFRGLIGGTNKRAPGVPARFSGSILGNKAALTITGAQADDESIYFCALWYSNLWVFGGGTKLTVL", "binds"],
  ["IgG1-huCD3-H1L3 (antibody, V domains shown, IgG1,λ with wild-type Fc region) VH: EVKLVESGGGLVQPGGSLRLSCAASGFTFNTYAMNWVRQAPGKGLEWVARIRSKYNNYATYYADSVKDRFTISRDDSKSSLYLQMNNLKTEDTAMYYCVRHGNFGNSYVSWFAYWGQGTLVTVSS VL: QAVVTQEPSFSVSPGGTVTLTCRSSTGAVTTSNYANWVQQTPGQAFRGLIGGTNKRAPGVPARFSGSILGNKAALTITGAQADDESDYYCALWYSNLWVFGGGTKLTVL", "binds"],
  ["IgG1-CD3-LFLEDA (antibody, V domains shown, also called chimeric, parental CD3 antibody) VH: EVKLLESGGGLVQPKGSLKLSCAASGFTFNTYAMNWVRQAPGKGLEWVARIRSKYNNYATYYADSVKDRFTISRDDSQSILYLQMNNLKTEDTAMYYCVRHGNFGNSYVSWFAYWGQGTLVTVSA VL: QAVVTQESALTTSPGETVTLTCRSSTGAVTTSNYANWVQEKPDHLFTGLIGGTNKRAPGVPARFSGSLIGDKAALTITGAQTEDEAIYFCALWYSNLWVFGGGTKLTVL", "binds"],
  ["IgG1-huCD3-H3L3 (antibody, V domains shown, IgG1,λ with wild-type Fc region) VH: EVKLVESGGGLVKPGRSLRLSCAASGFTFNTYAMNWVRQAPGKGLEWVARIRSKYNNYATYYADSVKDRFTISRDDSKSILYLQMNSLKTEDTAMYYCVRHGNFGNSYVSWFAYWGQGTLVTVSS VL: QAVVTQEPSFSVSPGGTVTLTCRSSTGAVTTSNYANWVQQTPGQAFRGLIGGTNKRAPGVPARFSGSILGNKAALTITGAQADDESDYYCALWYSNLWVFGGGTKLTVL", "binds"]
]}
